Source: patent US20060263802A1

# Tested on: human monoclonal antibody CRJB
# Format: binding
observable: Binding of CRJB (10 μg/ml) to looped/cyclic peptide (PEPSCAN-ELISA)
Lab note: record the figure alone, no unit after it.

Consider the following illustrative entries.
[
  {
    "inputSequence": "FGKAYTIFNKTLMEA",
    "measurement": 78
  },
  {
    "inputSequence": "SKGSETCGFVDERGL",
    "measurement": 77
  },
  {
    "inputSequence": "GVFFNGIILGPDGNV",
    "measurement": 85
  },
  {
    "inputSequence": "ERGLYKSLKGACKLK",
    "measurement": 72
  },
  {
    "inputSequence": "MELLESSVIPLVHPL",
    "measurement": 100
  }
]

Ask: Param readout = Binding of CRJB (10 μg/ml) to looped/cyclic peptide (PEPSCAN-ELISA); param system = human monoclonal antibody CRJB; param query = `EELVRKREECLDALE` ; response: value
Result: 2

Ask: Param readout = Binding of CRJB (10 μg/ml) to looped/cyclic peptide (PEPSCAN-ELISA); param system = human monoclonal antibody CRJB; param query = `SNETKWCPPDQLVNL` ; response: value
Result: 93

Ask: Param readout = Binding of CRJB (10 μg/ml) to looped/cyclic peptide (PEPSCAN-ELISA); param system = human monoclonal antibody CRJB; param query = `LHDFRSDEIEHLVVE` ; response: value
Result: 65

Ask: Param readout = Binding of CRJB (10 μg/ml) to looped/cyclic peptide (PEPSCAN-ELISA); param system = human monoclonal antibody CRJB; param query = `MQSSLLQQHMELLES` ; response: value
Result: 90

Ask: Param readout = Binding of CRJB (10 μg/ml) to looped/cyclic peptide (PEPSCAN-ELISA); param system = human monoclonal antibody CRJB; param query = `NGIILGPDGNVLIPE` ; response: value
Result: 85

====

# Tested on: human monoclonal antibody CR57
# Type: binding
// returns label 0 unless Binding of CR57 (10 μg/ml) to looped/cyclic peptide (PEPSCAN-ELISA) is strictly below 100, in which case label 1

Here are 8 sequences together with their reported answers.
[
  {
    "inputSequence": "DAHYKSVRTWNEILP",
    "qualitativeLabel": "label 1"
  },
  {
    "inputSequence": "LVPGFGKAYTIFNKT",
    "qualitativeLabel": "label 1"
  },
  {
    "inputSequence": "TWVAMQTSNETKWCP",
    "qualitativeLabel": "label 1"
  },
  {
    "inputSequence": "LLQQHMELLESSVIP",
    "qualitativeLabel": "label 0"
  },
  {
    "inputSequence": "GRCHPHVNGVFFNGI",
    "qualitativeLabel": "label 0"
  },
  {
    "inputSequence": "NEILPSKGCLRVGGR",
    "qualitativeLabel": "label 0"
  },
  {
    "inputSequence": "QTSNETKWCPPDQLV",
    "qualitativeLabel": "label 0"
  },
  {
    "inputSequence": "LLESSVIPLVHPLAD",
    "qualitativeLabel": "label 1"
  }
]

Ask: Hi there! Is Binding of CR57 (10 μg/ml) to looped/cyclic peptide (PEPSCAN-ELISA) for `MELLESSVIPLVHPL` below 100, do you know?
Result: label 0

Ask: Hi there! Is Binding of CR57 (10 μg/ml) to looped/cyclic peptide (PEPSCAN-ELISA) for `ILGPDGNVLIPEMQS` below 100, do you know?
Result: label 0

Ask: Hi there! Is Binding of CR57 (10 μg/ml) to looped/cyclic peptide (PEPSCAN-ELISA) for `PDGNVLIPEMQSSLL` below 100, do you know?
Result: label 0

====

# Tested on: human monoclonal antibody CRJA
# Assay type: binding
observable: Binding of CRJA to linear peptide (PEPSCAN-ELISA signal)
Lab note: record the figure alone, no unit after it.

Consider the following illustrative entries.
[
  {
    "inputSequence": "CLDALESIMTTKSVS",
    "assayTarget": "human monoclonal antibody CRJA",
    "measurement": 106
  },
  {
    "inputSequence": "PEMQSSLLQQHMELL",
    "assayTarget": "human monoclonal antibody CRJA",
    "measurement": 79
  },
  {
    "inputSequence": "PTPDACRAAYNWKMA",
    "assayTarget": "human monoclonal antibody CRJA",
    "measurement": 129
  },
  {
    "inputSequence": "IDIHHLSCPNNLVVE",
    "assayTarget": "human monoclonal antibody CRJA",
    "measurement": 61
  },
  {
    "inputSequence": "VDERGLYKSLKGACK",
    "assayTarget": "human monoclonal antibody CRJA",
    "measurement": 82
  },
  {
    "inputSequence": "WNEILPSKGCLRVGG",
    "assayTarget": "human monoclonal antibody CRJA",
    "measurement": 98
  },
  {
    "inputSequence": "LLESSVIPLVHPLAD",
    "assayTarget": "human monoclonal antibody CRJA",
    "measurement": 92
  },
  {
    "inputSequence": "GFSYMELKVGYILAI",
    "assayTarget": "human monoclonal antibody CRJA",
    "measurement": 91
  },
  {
    "inputSequence": "RVGGRCHPHVNGVFF",
    "assayTarget": "human monoclonal antibody CRJA",
    "measurement": 93
  },
  {
    "inputSequence": "TILDKLGPWSPIDIH",
    "assayTarget": "human monoclonal antibody CRJA",
    "measurement": 84
  }
]

Ask: Recorded Binding of CRJA to linear peptide (PEPSCAN-ELISA signal) of `EILPSKGCLRVGGRC` , please.
Result: 106

Ask: Recorded Binding of CRJA to linear peptide (PEPSCAN-ELISA signal) of `EADAHYKSVRTWNEI` , please.
Result: 79

Ask: Recorded Binding of CRJA to linear peptide (PEPSCAN-ELISA signal) of `FFNGIILGPDGNVLI` , please.
Result: 119

Ask: Recorded Binding of CRJA to linear peptide (PEPSCAN-ELISA signal) of `KMAGDPRYEESLHNP` , please.
Result: 48

Ask: Recorded Binding of CRJA to linear peptide (PEPSCAN-ELISA signal) of `PRYEESLHNPYPDYR` , please.
Result: 103

Ask: Recorded Binding of CRJA to linear peptide (PEPSCAN-ELISA signal) of `EIEHLVVEELVRKRE` , please.
Result: 86

Ask: Recorded Binding of CRJA to linear peptide (PEPSCAN-ELISA signal) of `ACKLKLCGVLGLRLM` , please.
Result: 79

Ask: Recorded Binding of CRJA to linear peptide (PEPSCAN-ELISA signal) of `SPSVADLDPYDRSLH` , please.
Result: 72

Ask: Recorded Binding of CRJA to linear peptide (PEPSCAN-ELISA signal) of `LSGFSYMELKVGYIL` , please.
Result: 82

Ask: Recorded Binding of CRJA to linear peptide (PEPSCAN-ELISA signal) of `SRGKRASKGSETCGF` , please.
Result: 70

Ask: Recorded Binding of CRJA to linear peptide (PEPSCAN-ELISA signal) of `KVGYILAIKMNGFTC` , please.
Result: 83

Ask: Recorded Binding of CRJA to linear peptide (PEPSCAN-ELISA signal) of `IHHLSCPNNLVVEDE` , please.
Result: 79

Ask: Recorded Binding of CRJA to linear peptide (PEPSCAN-ELISA signal) of `IPLVHPLADPSTVFK` , please.
Result: 130

Ask: Recorded Binding of CRJA to linear peptide (PEPSCAN-ELISA signal) of `TNHDYTIWMPENPRL` , please.
Result: 91

Ask: Recorded Binding of CRJA to linear peptide (PEPSCAN-ELISA signal) of `VEDEGCTNLSGFSYM` , please.
Result: 82

Ask: Recorded Binding of CRJA to linear peptide (PEPSCAN-ELISA signal) of `LMEADAHYKSVRTWN` , please.
Result: 46

Ask: Recorded Binding of CRJA to linear peptide (PEPSCAN-ELISA signal) of `GSETCGFVDERGLYK` , please.
Result: 56

Ask: Recorded Binding of CRJA to linear peptide (PEPSCAN-ELISA signal) of `KRKHFRPTPDACRAA` , please.
Result: 65

Ask: Recorded Binding of CRJA to linear peptide (PEPSCAN-ELISA signal) of `RKREECLDALESIMT` , please.
Result: 96

====

# Test system: human monoclonal antibody CRJA
# Type: binding
Answer not fulfilled if Binding of CRJA to linear peptide (PEPSCAN-ELISA signal) is under 90, and fulfilled if it is 90 or more.

[
  {
    "inputSequence": "LYKSLKGACKLKLCG",
    "qualitativeLabel": "fulfilled"
  },
  {
    "inputSequence": "DYRWLRTVKTTKESL",
    "qualitativeLabel": "not fulfilled"
  },
  {
    "inputSequence": "FSYMELKVGYILAIK",
    "qualitativeLabel": "fulfilled"
  },
  {
    "inputSequence": "NLHDFRSDEIEHLVV",
    "qualitativeLabel": "fulfilled"
  },
  {
    "inputSequence": "FNGIILGPDGNVLIP",
    "qualitativeLabel": "fulfilled"
  }
]

Ask: Is Binding of CRJA to linear peptide (PEPSCAN-ELISA signal) for `LRTVKTTKESLVIIS` at or above 90?
Result: not fulfilled

Ask: Is Binding of CRJA to linear peptide (PEPSCAN-ELISA signal) for `KLGPWSPIDIHHLSC` at or above 90?
Result: not fulfilled

Ask: Is Binding of CRJA to linear peptide (PEPSCAN-ELISA signal) for `SSVIPLVHPLADPST` at or above 90?
Result: not fulfilled
